These measurements were taken from the supplement of paper PMC10849652.

target: ZBTB17 isoform 2 (UniProt Q13105); assay: log2 fold change, soluble protein after heating vs DMSO (PISA); higher = thermal stabilisation; K562 cells, 10 uM, 30 min; active = over 0.2 and 3.5 SD of the protein, either way, in both replicates (recomputed)
Sequence (Q13105 whole entry, looked up, canonical isoform): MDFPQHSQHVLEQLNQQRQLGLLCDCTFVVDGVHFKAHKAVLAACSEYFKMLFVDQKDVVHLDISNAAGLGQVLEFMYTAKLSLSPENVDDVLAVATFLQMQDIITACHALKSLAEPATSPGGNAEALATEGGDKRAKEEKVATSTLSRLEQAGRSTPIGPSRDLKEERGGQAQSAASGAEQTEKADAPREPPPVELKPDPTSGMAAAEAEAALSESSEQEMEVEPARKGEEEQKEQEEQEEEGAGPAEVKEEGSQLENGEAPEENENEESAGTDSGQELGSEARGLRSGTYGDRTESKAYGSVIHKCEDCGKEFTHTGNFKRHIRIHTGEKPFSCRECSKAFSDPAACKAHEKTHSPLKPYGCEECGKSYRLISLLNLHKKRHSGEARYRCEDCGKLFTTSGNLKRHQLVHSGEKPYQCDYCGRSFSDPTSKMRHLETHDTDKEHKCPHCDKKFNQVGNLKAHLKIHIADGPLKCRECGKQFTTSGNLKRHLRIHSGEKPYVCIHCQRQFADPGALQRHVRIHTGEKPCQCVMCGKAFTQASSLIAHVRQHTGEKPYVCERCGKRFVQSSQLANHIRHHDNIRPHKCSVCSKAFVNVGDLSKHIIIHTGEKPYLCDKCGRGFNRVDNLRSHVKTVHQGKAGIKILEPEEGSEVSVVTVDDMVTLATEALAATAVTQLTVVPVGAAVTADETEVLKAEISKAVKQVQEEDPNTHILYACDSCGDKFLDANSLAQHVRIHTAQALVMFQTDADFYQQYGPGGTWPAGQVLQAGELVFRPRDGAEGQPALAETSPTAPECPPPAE
Of roughly 7,900 targets only a part is listed; those with a hit were picked by preference. About 0.6% of all pairs of compound and target were hits.
Please mark satisfied if the recorded log2 fold change is equal to or greater than -0.03, and not satisfied if it falls below.

>>> print(df.to_string())
                                        smi       category
0  C=CC(=O)N1CCC[C@@H](n2nc(-c3ccc(Oc4ccccc4)cc3)c3c(N)ncnc32)C1  not satisfied
1  Cc1cc(Nc2cc(N3CCN(C)CC3)nc(Sc3ccc(NC(=O)C4CC4)cc3)n2)n[nH]1      satisfied
2  CCn1c(C(=O)N(C2CC2)C2CC2)cc2c3c(ncn3C)c(Nc3cc(C)n(C)n3)nc21      satisfied
3  NC1(Cc2ccc(Cl)cc2)CCN(c2ncnc3[nH]ccc23)CC1  not satisfied
4  CCN(CC)Cc1ccc2cc(COC(=O)Nc3ccc(C(=O)NO)cc3)ccc2c1      satisfied
5  NC(=O)Nc1cc(-c2cccc(F)c2)sc1C(=O)N[C@H]1CCCNC1  not satisfied
6  Cc1ccc(NC(=O)c2cccc(C(C)(C)C#N)c2)cc1Nc1ccc2ncn(C)c(=O)c2c1      satisfied
7  Cc1ccc(NC(=O)c2ccc(CN3CC[C@H](N(C)C)C3)c(C(F)(F)F)c2)cc1Nc1nccc(-c2cncnc2)n1      satisfied
8  C#Cc1cccc(Nc2ncnc3cc(OCCOC)c(OCCOC)cc23)c1  not satisfied
9  O=C(O)c1ccc2c(c1)nc(Nc1cccc(Cl)c1)c1ccncc12      satisfied
